# ASSAYED_SYSTEM: T1, HSPB1ACD (α-crystallin domain of HSPB1) (human)
# T1 construct: HSPB1, human, α-crystallin domain; also called ACD of HSPB1
# ASSAY_REMARKS: native MS; ACD incubated with C-terminal peptide, peptide titration; 200 mM ammonium acetate pH 6.9; acetonitrile added to the source housing; fit with a Hill slope model for 1:1 binding
# CONDITIONS: both partners purified
REPORTED_PROPERTY: Kd

[ask] Fill in: Kd of ITIPVTFE [HSPB1 C-terminal peptide (cognate peptide of HSPB1ACD)] is ___
[reply] ≤ 100 µM
